molecular target: the molecule itself; assay: SEC-MALS; Atg38 full-length, MIT domain and deletion variants alone on S75 10/30; 20 mM Tris pH 7.9, 300 mM NaCl, 1 mM TCEP
OUTCOME MEASURE: stoichiometry N

Atg38 stalkΔ (182 to 209 deleted), recombinant (natural protein, S. cerevisiae, UniProt Q05789 1-226, looked up, GST fusions were eluted with glutathione or cut with TEV as needed; likely cut for SEC-MALS; source: E. coli, purified (Glutathione Sepharose, S75)) MSTLAEVYTIIEDAEQECRKGDFTNAKAKYQEAIEVLGPQNENLSQNKLSSDVTQAIDLLKQDITAKIQELELLIEKQSSEENNIGMVNNNMLIGSVILNNKSPINGISNARNWDNPAYQDTLSPINDPLLMSILNRLQFNLNNDIQLKTEGGKNSKNSEMKINLRLEQFKKELVLYEQKKWDSLVESAKQRRDKQKN | 2
Atg38 capΔ (123 to 181 deleted), recombinant (natural protein, S. cerevisiae, UniProt Q05789 1-226, looked up, GST fusions were eluted with glutathione or cut with TEV as needed; likely cut for SEC-MALS; source: E. coli, purified (Glutathione Sepharose, S75)) MSTLAEVYTIIEDAEQECRKGDFTNAKAKYQEAIEVLGPQNENLSQNKLSSDVTQAIDLLKQDITAKIQELELLIEKQSSEENNIGMVNNNMLIGSVILNNKSPINGISNARNWDNPAYQDTFKEYGMKIDEITKENKKLANEIGRLRERWDSLVESAKQRRDKQKN | 2
Atg38, full-length (natural protein, S. cerevisiae, UniProt Q05789 1-226, looked up, also called purified Atg38; free Atg38; source: E. coli, purified (Glutathione Sepharose, TEV, HiTrap Q, S75); not shown: GST, N-terminal, cleaved) MSTLAEVYTIIEDAEQECRKGDFTNAKAKYQEAIEVLGPQNENLSQNKLSSDVTQAIDLLKQDITAKIQELELLIEKQSSEENNIGMVNNNMLIGSVILNNKSPINGISNARNWDNPAYQDTLSPINDPLLMSILNRLQFNLNNDIQLKTEGGKNSKNSEMKINLRLEQFKKELVLYEQKKFKEYGMKIDEITKENKKLANEIGRLRERWDSLVESAKQRRDKQKN | 2
Atg38 tailΔ (210 to 226 deleted), recombinant (domain or fragment, S. cerevisiae, UniProt Q05789 1-209, looked up, Atg38, S. cerevisiae; GST fusions were eluted with glutathione or cut with TEV as needed; likely cut for SEC-MALS; source: E. coli, purified (Glutathione Sepharose, S75)) MSTLAEVYTIIEDAEQECRKGDFTNAKAKYQEAIEVLGPQNENLSQNKLSSDVTQAIDLLKQDITAKIQELELLIEKQSSEENNIGMVNNNMLIGSVILNNKSPINGISNARNWDNPAYQDTLSPINDPLLMSILNRLQFNLNNDIQLKTEGGKNSKNSEMKINLRLEQFKKELVLYEQKKFKEYGMKIDEITKENKKLANEIGRLRER | 2
